Reference source for all entries: the CheMixHub drug solubility set

assay: xn = mol fraction of the nth substance listed, in the solute-free solvent; details: 283.15 K; x2 = 0.2307
// label = TRUE if solubility (g/100 g solution) is not less than 0.6, otherwise FALSE

Would you please look over these solved cases?
compound	qualitative.label
Cc1ccc2cc(Br)ccc2n1 + CC(C)O + O	FALSE
CN1CCC(N(Cc2cccs2)c2ccccc2)CC1 + CC(C)O + O	TRUE
Nc1cccc2ccncc12 + CC(C)O + O	FALSE

Now examine the next entry.
API: above_or_equal(metric=solubility (g/100 g solution), cutoff=0.6) for item CN1CCC(N(Cc2cccs2)c2ccccc2)CC1 + CCCO + O
TRUE
